Molecular target: UniProtKB Q13635
Sequence (Q13635 1-1447): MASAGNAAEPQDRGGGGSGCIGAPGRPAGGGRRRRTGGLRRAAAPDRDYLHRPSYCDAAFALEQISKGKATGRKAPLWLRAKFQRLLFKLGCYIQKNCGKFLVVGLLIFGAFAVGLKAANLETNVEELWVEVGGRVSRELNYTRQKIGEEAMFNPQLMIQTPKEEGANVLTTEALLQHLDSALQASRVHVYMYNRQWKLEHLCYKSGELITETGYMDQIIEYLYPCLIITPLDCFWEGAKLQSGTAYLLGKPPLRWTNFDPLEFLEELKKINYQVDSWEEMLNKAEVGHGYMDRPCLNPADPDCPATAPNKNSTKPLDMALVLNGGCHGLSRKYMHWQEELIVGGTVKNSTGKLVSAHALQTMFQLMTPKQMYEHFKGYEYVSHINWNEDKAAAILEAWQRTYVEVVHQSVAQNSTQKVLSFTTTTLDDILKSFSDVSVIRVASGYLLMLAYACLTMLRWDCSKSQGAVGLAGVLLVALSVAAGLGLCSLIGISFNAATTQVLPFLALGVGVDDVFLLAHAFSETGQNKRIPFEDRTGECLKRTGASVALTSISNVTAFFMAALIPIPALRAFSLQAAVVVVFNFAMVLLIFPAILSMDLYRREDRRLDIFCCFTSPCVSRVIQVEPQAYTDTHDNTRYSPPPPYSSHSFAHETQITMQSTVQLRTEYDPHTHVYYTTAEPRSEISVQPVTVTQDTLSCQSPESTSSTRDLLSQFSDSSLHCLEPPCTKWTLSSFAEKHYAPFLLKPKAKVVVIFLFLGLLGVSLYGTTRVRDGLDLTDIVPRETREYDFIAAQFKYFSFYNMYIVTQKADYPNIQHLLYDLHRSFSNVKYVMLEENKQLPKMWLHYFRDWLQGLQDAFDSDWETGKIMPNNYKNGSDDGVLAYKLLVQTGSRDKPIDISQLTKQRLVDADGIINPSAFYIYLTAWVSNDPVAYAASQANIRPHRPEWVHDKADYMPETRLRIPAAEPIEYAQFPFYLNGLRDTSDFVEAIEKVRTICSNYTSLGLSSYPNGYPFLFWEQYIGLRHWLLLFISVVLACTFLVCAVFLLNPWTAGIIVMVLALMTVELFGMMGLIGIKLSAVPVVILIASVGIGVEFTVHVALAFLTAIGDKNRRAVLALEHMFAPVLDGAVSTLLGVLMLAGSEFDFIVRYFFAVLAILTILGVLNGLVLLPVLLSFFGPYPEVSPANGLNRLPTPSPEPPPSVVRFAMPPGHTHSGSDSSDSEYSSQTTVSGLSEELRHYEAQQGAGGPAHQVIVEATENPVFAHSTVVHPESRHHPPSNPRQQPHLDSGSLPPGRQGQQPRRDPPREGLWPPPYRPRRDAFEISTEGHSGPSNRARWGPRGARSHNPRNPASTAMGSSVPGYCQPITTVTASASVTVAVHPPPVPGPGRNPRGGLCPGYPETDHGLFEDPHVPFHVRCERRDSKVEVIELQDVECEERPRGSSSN

{"compound": "CSc1ccc2c(c1)C(N1CCN(C)CC1)Cc1ccccc1S2 (stereo not shown) [P375, methiothepin]", "Kd": "~7 µM"}
